Please go through the items and note down their max response.
assay: qHTS assay for small molecule agonists of retinoid X receptor alpha signaling (AID 588544); conditions: HEK293T RXRa-UAS-bla, beta-lactamase reporter, 18 h; 530 nm emission
Results filed as inconclusive are left out.
Just the number in %, nothing appended.

// query max response value for entry CCOc1ccc2nc(N)sc2c1
1.63

Then this molecule: CCCCCCN
-10.9

Then this molecule: C1CCCNCC1
-9.69

Then this molecule: CC(=O)c1ccc(Cl)c(Cl)c1Cl
-2.84

====

experiment: qHTS assay for small molecule agonists of the antioxidant response element (ARE) signaling pathway measured by Nrf2-dependant transcriptional activity (AID 720636); conditions: ARE-luc HepG2, Nrf2 luciferase reporter, 16 h; series mostly up to 92.4 µM;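 on activation: HepG2 cells with an ARE-driven luciferase reporter; % of control where 0% means no effect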
Inconclusive results are not listed. Activity calls are given as the source filed them. Calls follow the shape of the dose curve; as a rule, active = well fitted activation curve with a large enough effect in the repeat runs; inconclusive = weak or mixed curves; inactive = flat fitted curve, though single readings scatter.
Pick from active, inactive when you respond.

What call does the record list for CCC(Cl)CC(Cl)C(Cl)C(Cl)C(Cl)C(C)Cl (centres undefined) ?
inactive

Then this compound: Oc1c(Cl)cc(Cl)c(Cl)c1Cl
inactive

Then this compound: CC/C=C/C/C=C/C/C=C/CCCCCCCC(=O)OCC
active

Then this compound: C1CCCNCC1
inactive

Then this compound: OCC(CO)(CBr)CBr
inactive

Then this compound: Brc1cc(Br)c(Oc2cc(Br)c(Br)cc2Br)cc1Br
inactive

Then this compound: O=[N+]([O-])c1ccc(F)cc1F
inactive

Then this compound: c1c[nH]cn1
inactive

Then this compound: CCCCNCC
inactive

====

Please go through the items and note down their Potency.
molecular target: Glucocorticoid receptor (Homo sapiens) (UniProt P04150); assay: GR-EFC Redistribution (AID 451); conditions: CHO-K1 GR-EFC translocation, beta-gal luminescence, 2 h; further: potency means the concentration at half of the fitted maximal effect
Sequence (P04150 whole entry, looked up): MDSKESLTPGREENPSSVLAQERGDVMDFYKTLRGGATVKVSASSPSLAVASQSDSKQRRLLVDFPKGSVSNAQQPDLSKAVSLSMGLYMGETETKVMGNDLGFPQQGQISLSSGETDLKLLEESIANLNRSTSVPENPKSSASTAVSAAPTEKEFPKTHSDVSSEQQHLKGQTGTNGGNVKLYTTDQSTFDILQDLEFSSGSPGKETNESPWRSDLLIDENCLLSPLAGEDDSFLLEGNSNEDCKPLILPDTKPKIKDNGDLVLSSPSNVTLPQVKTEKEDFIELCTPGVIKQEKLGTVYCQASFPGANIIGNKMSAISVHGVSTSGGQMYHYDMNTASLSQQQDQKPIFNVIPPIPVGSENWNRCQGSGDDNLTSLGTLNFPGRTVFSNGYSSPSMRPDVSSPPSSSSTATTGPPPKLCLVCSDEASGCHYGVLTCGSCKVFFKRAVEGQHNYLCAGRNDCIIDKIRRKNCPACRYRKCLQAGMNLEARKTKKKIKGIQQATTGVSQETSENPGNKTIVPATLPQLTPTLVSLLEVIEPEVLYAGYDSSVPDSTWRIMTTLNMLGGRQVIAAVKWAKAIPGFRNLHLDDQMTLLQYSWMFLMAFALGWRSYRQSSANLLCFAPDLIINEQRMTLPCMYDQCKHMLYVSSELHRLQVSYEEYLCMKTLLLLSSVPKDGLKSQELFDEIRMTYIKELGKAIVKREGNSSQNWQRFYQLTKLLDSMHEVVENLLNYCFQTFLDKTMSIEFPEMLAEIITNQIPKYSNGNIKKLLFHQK
Activity calls are given as the source filed them. Calls follow the shape of the full dose curve.

// query Potency value for entry O=c1[nH]c(SCc2c(Cl)c(Cl)c(Cl)c(Cl)c2Cl)nc(=S)[nH]1
> 9.22 µM (inactive)

Then this molecule: c1ccc2c[n+](CCCC[n+]3ccc4ccccc4c3)ccc2c1
> 9.22 µM (inactive)

Then this molecule: CN(Cc1cc(Cl)cc(Cl)c1O)Cc1c(O)ccc2ccccc12
> 9.22 µM (inactive)

Then this molecule: FC(F)(F)c1nc(SCc2ccc(Cl)cc2)n[nH]1
> 9.22 µM (inactive)

Then this molecule: CN(C)C(=O)/N=N\C(=O)N(C)C
> 46 µM (inactive)

Then this molecule: C[C@@H](CS(=O)(=O)Cc1ccccc1)C(N)=O
> 9.22 µM (inactive)

Then this molecule: Cc1cc(N2CCOCC2)nc2ccc(Cc3ccc4nc(N5CCOCC5)cc(C)c4c3)cc12
> 9.22 µM (inactive)

Then this molecule: Cc1nc2cnc(N3CCOCC3)nc2n(Cc2cccs2)c1=O
> 46 µM (inactive)

Then this molecule: O=C(O)c1ccc(NS(=O)(=O)Cc2ccccc2)cc1
> 9.22 µM (inactive)

Then this molecule: CS(=O)(=O)c1ccc(/C=N\NC(N)=S)cc1
> 9.22 µM (inactive)

Then this molecule: CN1CCN(c2ncc3nc(-c4cccs4)c(=O)n(C[C@H]4CCCO4)c3n2)CC1
> 46 µM (inactive)

Then this molecule: COc1ccc(/C=C(\C#N)C(N)=O)cc1OC
> 9.22 µM (inactive)

Then this molecule: COc1ncc2nc(CCc3ccccc3)c(=O)n(C)c2n1
> 46 µM (inactive)

Then this molecule: CNc1ncnc2c1ncn2[C@H]1C[C@@H](OP(=O)(O)O)[C@H](COP(=O)(O)O)O1
> 46 µM (inactive)

Then this molecule: O=C(Nc1ccc(-c2cn3ccccc3n2)cc1)c1cc(Br)ccc1O
> 9.22 µM (inactive)

Then this molecule: COC(=O)c1cc(=O)[nH]c(=O)[nH]1
> 9.22 µM (inactive)

Then this molecule: N[C@H](CS(=O)O)C(=O)O
> 46 µM (inactive)

Then this molecule: CN(C)CCNS(=O)(=O)N(C)C
> 9.22 µM (inactive)

Then this molecule: Nc1ccc(C(=O)C[C@H](N)C(=O)O)cc1O
> 9.22 µM (inactive)

Then this molecule: Nc1nc(SCC(=O)c2ccc(Br)cc2)c2[nH]cnc2n1
> 9.22 µM (inactive)

Then this molecule: O=[N+]([O-])/C=C\c1cc2ccccc2[nH]1
> 9.22 µM (inactive)

Then this molecule: N#CCCn1c(=O)c(CCc2ccccc2)nc2cnc(Oc3ccccc3)nc21
> 46 µM (inactive)

Then this molecule: Cc1cc(C2(c3cc(C)c(O)c(C(=O)O)c3)OS(=O)(=O)c3ccccc32)cc(C(=O)O)c1O
> 9.22 µM (inactive)

Then this molecule: CCN(CC)CC[n+]1ccc2c(C)c3[nH]c4ccc(O)cc4c3c(C)c2c1
> 9.22 µM (inactive)

Then this molecule: Oc1c(Br)cc(CN(Cc2cc(Br)c(O)c(Br)c2)C2CCCCC2)cc1Br
> 9.22 µM (inactive)

Then this molecule: COc1cc(OC)cc([C@H](CNc2ncnc3c2ncn3[C@@H]2O[C@@H](CO)[C@H](O)[C@@H]2O)c2ccccc2C)c1
> 46 µM (inactive)

Then this molecule: COc1ccc(C(=O)N2CCC3(CC2)CN(c2ccccc2)C3)cc1
> 46 µM (inactive)

Then this molecule: CCC1=C(C[C@H]2NCCc3ccccc32)C[C@@H]2c3cc(OC)c(OC)cc3CCN2C1
> 9.22 µM (inactive)
